- target_system: ΔF508-CFTR (Homo sapiens, UniProt P13569, DEL508-508)
- Sequence (P13569 with tags, fused parts or gaps DEL508-508): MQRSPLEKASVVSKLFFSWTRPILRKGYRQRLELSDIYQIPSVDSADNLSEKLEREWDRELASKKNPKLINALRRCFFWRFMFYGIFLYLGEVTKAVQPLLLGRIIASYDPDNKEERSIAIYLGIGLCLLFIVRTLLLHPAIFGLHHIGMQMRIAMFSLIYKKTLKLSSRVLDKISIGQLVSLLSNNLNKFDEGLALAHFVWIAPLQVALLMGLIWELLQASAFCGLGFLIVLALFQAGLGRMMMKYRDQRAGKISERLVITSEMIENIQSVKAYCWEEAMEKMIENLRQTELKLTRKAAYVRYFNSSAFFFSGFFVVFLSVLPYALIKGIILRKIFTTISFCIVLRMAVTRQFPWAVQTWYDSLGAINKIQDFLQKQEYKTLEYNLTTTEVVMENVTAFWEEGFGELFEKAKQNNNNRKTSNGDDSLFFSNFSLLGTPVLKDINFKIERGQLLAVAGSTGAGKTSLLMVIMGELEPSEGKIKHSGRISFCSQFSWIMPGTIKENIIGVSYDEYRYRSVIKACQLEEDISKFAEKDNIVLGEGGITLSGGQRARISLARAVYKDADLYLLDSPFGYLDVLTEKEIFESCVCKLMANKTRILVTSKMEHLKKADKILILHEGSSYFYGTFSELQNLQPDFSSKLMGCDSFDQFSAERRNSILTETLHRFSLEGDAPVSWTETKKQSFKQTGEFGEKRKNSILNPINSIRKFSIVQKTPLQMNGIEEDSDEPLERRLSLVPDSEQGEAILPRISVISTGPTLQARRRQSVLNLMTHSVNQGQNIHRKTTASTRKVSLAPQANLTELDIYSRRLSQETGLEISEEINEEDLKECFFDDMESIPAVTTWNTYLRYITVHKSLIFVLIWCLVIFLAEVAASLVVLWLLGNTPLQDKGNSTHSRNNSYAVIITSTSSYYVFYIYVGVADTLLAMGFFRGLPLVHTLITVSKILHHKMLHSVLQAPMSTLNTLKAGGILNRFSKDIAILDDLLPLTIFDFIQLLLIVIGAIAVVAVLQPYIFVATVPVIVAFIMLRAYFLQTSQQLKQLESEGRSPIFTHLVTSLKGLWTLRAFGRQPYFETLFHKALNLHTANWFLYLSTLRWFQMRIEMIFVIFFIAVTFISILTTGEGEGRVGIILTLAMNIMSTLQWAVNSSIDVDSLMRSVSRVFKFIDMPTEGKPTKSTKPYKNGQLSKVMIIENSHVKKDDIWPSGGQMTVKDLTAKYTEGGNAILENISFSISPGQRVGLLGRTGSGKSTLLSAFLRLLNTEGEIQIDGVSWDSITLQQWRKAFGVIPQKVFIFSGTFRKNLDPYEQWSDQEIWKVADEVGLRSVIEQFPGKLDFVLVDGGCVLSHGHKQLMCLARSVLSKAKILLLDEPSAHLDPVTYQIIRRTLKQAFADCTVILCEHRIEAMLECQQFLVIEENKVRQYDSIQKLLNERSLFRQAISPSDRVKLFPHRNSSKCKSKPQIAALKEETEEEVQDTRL
- measurement_notes: Membrane potential optical (FRET/VIPR) assay, identification of correction compounds
- assay_conditions: Table 3; assay not given
We begin with a simple list: items and their reported EC50.

As a guide, the following entries are already answered.
compound="O=C(Nc1ncc(C(Cc2ccccc2Cl)N2CC[C@@H](O)C2)s1)C1(c2ccc3c(c2)OCO3)CC1 (stereo partly drawn)" target_system="ΔF508-CFTR (Homo sapiens, UniProt P13569, DEL508-508)" result="< 10 µM"
compound="O=C(Nc1ncc(C(c2cccc3c2OC(F)(F)O3)N2CCCC2)s1)C1(c2ccc3c(c2)OCO3)CC1 (stereo not drawn)" target_system="ΔF508-CFTR (Homo sapiens, UniProt P13569, DEL508-508)" result="< 10 µM"
compound="O=C(Nc1ncc(C(c2cccc3c2OC(F)(F)O3)N2CC[C@@H](O)C2)s1)C1(c2ccc3c(c2)OCO3)CC1 (stereo partly drawn)" target_system="ΔF508-CFTR (Homo sapiens, UniProt P13569, DEL508-508)" result="< 10 µM"

Consider the compound shown here: CCC(c1cnc(NC(=O)C2(c3ccc4c(c3)OCO4)CC2)s1)N1CCCC1 (stereo not drawn) What is its recorded EC50?
10 to 25 µM

Consider the compound shown here: COc1ccccc1C1(C(=O)Nc2ncc(C(c3ccccc3Cl)N3CC[C@@H](O)C3)s2)CC1 (stereo partly drawn) What is its recorded EC50?
< 10 µM

Consider the compound shown here: O=C(Nc1ncc(C(c2ccccc2Cl)N2CC[C@@H](O)C2)s1)C1(c2ccc3c(c2)OC(F)(F)O3)CC1 (stereo partly drawn) What is its recorded EC50?
< 10 µM

Consider the compound shown here: O=C(Nc1ncc(C(c2ccccc2Cl)N2CC[C@@H](O)C2)s1)C1(c2ccc(Cl)cc2)CC1 (stereo partly drawn) What is its recorded EC50?
< 10 µM

Consider the compound shown here: O=C(Nc1ncc(C(c2cccc(Cl)c2)N2CC[C@@H](O)C2)s1)C1(c2ccc3c(c2)OCO3)CC1 (stereo partly drawn) What is its recorded EC50?
< 10 µM
